Target: 5-hydroxytryptamine receptor 2A (Mus musculus)
Assay: The ability to antagonize head twitches in mice, observed after administration of (+/-)- DOI, was used to evaluate 5-HT2A receptor antagonistic property; Antagonist
Format: functional, organism-based
Conditions: filed as antagonist

smiles text	Functional profile
Cn1c(=O)c2c(nc3nc(NCCCN4CCN(c5ccccc5)CC4)ccn32)n(C)c1=O	Antagonist
Cn1c(=O)c2c(nc3nc(NCCCN4CCN(c5cccc(Cl)c5)CC4)ccn32)n(C)c1=O	Antagonist
Cn1c(=O)c2c(nc3nc(NCCN4CCN(c5cccc(Cl)c5)CC4)c(Br)cn32)n(C)c1=O	Antagonist
Cn1c(=O)c2c(nc3nc(NCCCN4CCN(c5cccc(Cl)c5)CC4)c(Br)cn32)n(C)c1=O	Antagonist

* * *

Target: 5-hydroxytryptamine receptor 1A (Rattus norvegicus)
Sequence (P19327 whole entry): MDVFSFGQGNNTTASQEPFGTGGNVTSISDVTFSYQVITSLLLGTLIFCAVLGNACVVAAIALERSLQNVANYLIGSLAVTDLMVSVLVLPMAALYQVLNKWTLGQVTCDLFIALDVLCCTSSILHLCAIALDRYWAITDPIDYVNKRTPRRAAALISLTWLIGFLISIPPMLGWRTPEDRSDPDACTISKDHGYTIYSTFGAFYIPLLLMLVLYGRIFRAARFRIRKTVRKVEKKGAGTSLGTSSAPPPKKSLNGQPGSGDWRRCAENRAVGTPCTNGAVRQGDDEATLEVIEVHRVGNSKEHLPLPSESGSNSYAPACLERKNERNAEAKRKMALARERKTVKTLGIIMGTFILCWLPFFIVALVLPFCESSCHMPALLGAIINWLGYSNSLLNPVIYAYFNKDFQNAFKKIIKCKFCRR
observation type: pKi
// pKi is dimensionless: -log10 of concentration (M)

Name the recorded pKi for COc1ccccc1N1CCN(CCNc2nc3nc4c(c(=O)n(C)c(=O)n4C)n3cc2Br)CC1 . 7.21

Then this compound: Cn1c(=O)c2c(nc3nc(NCCCN4CCN(c5ccccc5)CC4)ccn32)n(C)c1=O 7.72

Then this compound: COc1ccccc1N1CCN(CCCNc2nc3nc4c(c(=O)n(C)c(=O)n4C)n3cc2Br)CC1 7.44

Then this compound: COc1ccccc1N1CCN(CCCN2CCCn3c2nc2c3c(=O)n(C)c(=O)n2C)CC1 7.76

Then this compound: Cn1c(=O)c2c(nc3nc(NCCCN4CCN(c5cccc(Cl)c5)CC4)c(Br)cn32)n(C)c1=O 7.31

Then this compound: COc1ccccc1N1CCN(CCNc2ccn3c(n2)nc2c3c(=O)n(C)c(=O)n2C)CC1 8.96

Then this compound: Cn1c(=O)c2c(nc3nc(NCCN4CCN(c5cccc(Cl)c5)CC4)ccn32)n(C)c1=O 7.64

Then this compound: Cn1c(=O)c2c(nc3nc(NCCN4CCN(c5ccccc5)CC4)ccn32)n(C)c1=O 7.94

Then this compound: Cn1c(=O)c2c(nc3nc(NCCN4CCN(c5ccccc5)CC4)c(Br)cn32)n(C)c1=O 7.06

* * *

Target: Adrenergic receptor alpha-1 (Rattus norvegicus, UniProt P15823+P23944+P43140)
Sequence (P15823 whole entry): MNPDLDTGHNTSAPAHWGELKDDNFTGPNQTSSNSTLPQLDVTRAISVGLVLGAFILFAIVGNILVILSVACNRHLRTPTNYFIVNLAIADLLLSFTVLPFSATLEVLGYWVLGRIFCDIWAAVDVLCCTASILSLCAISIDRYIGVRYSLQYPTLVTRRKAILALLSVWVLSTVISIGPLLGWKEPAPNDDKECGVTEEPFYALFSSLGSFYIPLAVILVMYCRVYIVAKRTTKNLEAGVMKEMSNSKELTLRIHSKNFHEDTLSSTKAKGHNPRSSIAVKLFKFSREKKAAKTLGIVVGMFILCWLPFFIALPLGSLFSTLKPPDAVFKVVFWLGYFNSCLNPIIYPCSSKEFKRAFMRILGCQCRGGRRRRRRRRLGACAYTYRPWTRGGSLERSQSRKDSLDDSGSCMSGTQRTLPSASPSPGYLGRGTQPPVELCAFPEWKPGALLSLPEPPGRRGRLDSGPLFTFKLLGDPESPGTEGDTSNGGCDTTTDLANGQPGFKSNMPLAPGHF
Sequence (P23944 whole entry): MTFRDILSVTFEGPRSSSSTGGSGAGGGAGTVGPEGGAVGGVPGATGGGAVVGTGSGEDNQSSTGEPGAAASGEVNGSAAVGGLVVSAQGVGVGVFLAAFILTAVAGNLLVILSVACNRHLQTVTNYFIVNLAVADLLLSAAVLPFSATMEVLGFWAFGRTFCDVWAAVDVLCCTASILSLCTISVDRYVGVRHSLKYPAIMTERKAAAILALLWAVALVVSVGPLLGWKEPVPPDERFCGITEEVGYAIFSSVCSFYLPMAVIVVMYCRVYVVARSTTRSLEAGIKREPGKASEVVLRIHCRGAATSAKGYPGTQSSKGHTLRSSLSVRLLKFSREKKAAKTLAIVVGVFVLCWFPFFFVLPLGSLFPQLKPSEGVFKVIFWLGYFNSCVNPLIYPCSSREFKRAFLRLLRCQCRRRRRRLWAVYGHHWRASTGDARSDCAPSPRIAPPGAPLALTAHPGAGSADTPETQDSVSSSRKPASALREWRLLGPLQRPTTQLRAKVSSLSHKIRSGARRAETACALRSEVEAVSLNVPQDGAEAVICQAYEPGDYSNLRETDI
Sequence (P43140 whole entry): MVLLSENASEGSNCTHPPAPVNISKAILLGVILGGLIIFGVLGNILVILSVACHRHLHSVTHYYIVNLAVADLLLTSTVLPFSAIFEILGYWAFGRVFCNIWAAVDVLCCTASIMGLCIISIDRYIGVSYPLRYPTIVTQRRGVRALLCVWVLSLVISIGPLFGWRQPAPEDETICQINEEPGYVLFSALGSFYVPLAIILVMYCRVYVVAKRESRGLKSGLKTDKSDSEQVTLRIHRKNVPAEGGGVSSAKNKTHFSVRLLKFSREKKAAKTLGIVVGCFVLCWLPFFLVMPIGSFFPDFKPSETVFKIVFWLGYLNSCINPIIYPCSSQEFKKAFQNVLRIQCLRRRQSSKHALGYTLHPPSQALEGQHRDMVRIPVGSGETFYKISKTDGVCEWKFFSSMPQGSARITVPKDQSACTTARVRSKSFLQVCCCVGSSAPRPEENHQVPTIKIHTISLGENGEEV
Experiment: Ability to bind to alpha-1 adrenergic receptor in vitro in cortex of the rat brain using [3H]prazosin radioligand
Format: tissue-based
observation type: Ki (nM)
Give just the numeric value; nM need not be written.

Name the recorded Ki for Cn1c(=O)c2c(nc3nc(NCCN4CCN(c5cccc(Cl)c5)CC4)ccn32)n(C)c1=O . 29

Then this molecule: COc1ccccc1N1CCN(CCCNc2nc3nc4c(c(=O)n(C)c(=O)n4C)n3cc2Br)CC1 38

Then this molecule: Cn1c(=O)c2c(nc3nc(NCCCN4CCN(c5cccc(Cl)c5)CC4)c(Br)cn32)n(C)c1=O 46

Then this molecule: COc1ccccc1N1CCN(CCCNc2ccn3c(n2)nc2c3c(=O)n(C)c(=O)n2C)CC1 33

Then this molecule: Cn1c(=O)c2c(nc3nc(NCCCN4CCN(c5ccccc5)CC4)c(Br)cn32)n(C)c1=O 11

Then this molecule: COc1ccccc1N1CCN(CCNc2ccn3c(n2)nc2c3c(=O)n(C)c(=O)n2C)CC1 58

Then this molecule: COc1ccccc1N1CCN(CCNc2nc3nc4c(c(=O)n(C)c(=O)n4C)n3cc2Br)CC1 62

Then this molecule: Cn1c(=O)c2c(nc3nc(NCCCN4CCN(c5cccc(Cl)c5)CC4)ccn32)n(C)c1=O 21

Then this molecule: Cn1c(=O)c2c(nc3nc(NCCCN4CCN(c5ccccc5)CC4)ccn32)n(C)c1=O 25
